- Procedure Details: chemical genetic growth profiling, strain panel (AID 1159580);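 further: tested at 20 µM; growth read once vehicle control cultures reached saturation at 30 °C; 1 = growth at the plate median or of vehicle wells; lower values mean less growth of the strain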
- Assay Setup: S. cerevisiae deletion strains, growth OD, locus YNL128W, strain TEP1
Hit rate of the full screen: of about 5,500 compounds, about 2,000 (36%) were called active. Inconclusive results (about 18%) are left out. No stated cut-off is given here; in the data, active means normalized growth mostly below about 0.91 (no sharp cut-off); inconclusive means no clear call, values can overlap the other calls; inactive means mostly above about 0.92. Some of the results follow.
Returns: one label drawn from Yes (active), No (inactive)

Each compound tested received a call. Report the one for "O[N+]1=CC=CCC1=S.On1ccccc1=S.[Zn]" .
Yes

Could you kindly confirm the outcome this assay logged for "O=C(O)C1=CCNCC1" ?
No

Continuing:
Given "C=C(C)[C@H]1CC=C(C(=O)O)CC1" , state the outcome it received in this test.
No

Lab log entry: "COC(=O)Oc1ccccc1C(=O)O" — outcome as called in the assay?
No

How was "O=C(O)c1ccccc1Nc1cccc(C(F)(F)F)c1" classified in this test?
No

----------
- Procedure Details: chemical genetic growth profiling, strain panel (AID 1159580);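 further: tested at 20 µM; growth read once vehicle control cultures reached saturation at 30 °C; 1 = growth at the plate median or of vehicle wells; lower values mean less growth of the strain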
- Assay Setup: S. cerevisiae deletion strains, growth OD, locus YOR290C, strain snf2, hits give low values
The whole screen tested about 5,500 compounds, of which about 2,000 (36%) were called active. Roughly 18% stayed inconclusive and do not appear here. This is one part of the list.
Readout Kind: normalized growth
Reply: number alone, nothing else.

For orientation, consider the following solved cases.
Param item = "COc1cc2c(c(OC)c1OC)-c1ccc(OC)c(=O)cc1[C@@H](NC(C)=O)CC2" ; retrieve measured normalized growth.
1.01

Field request: normalized growth | item: "O=C(O[C@@H]1Cc2c(O)cc(O)cc2O[C@@H]1c1cc(O)c(O)c(O)c1-c1c([C@H]2Oc3cc(O)cc(O)c3C[C@H]2O)cc(O)c(O)c1O)c1cc(O)c(O)c(O)c1"
0.989

Fill in the blank: the reported normalized growth of "OC[C@@H]1CCCN2CCCC[C@H]12" is ____.
1.04

Need normalized growth of "COc1cc(OC)c2c(=O)c(-c3ccccc3)c(C)oc2c1OC" , thanks.
0.933

May I ask what normalized growth has been recorded for "CN[C@H](CC(=O)O)C(=O)O" ?
1.01

Further cases:
Dear colleague, I am looking for the recorded normalized growth of the following compound: O=C1CCCC2C3CC(CN12)[C@@H]1CCCCN1C3 (stereo not given in full)
0.975

Which value of normalized growth has been reported for CC1(C)C(C(Cl)Cl)C2(Cl)C(Cl)C(Cl)C1(Cl)C2(Cl)Cl (stereo not given) in the records?
0.977

Give the measured normalized growth of "O=C(NC(=O)c1c(F)cccc1F)Nc1ccc(Cl)cc1" .
1.01

# get_value(readout='normalized growth', item= "COc1ccc(C(Cl)=C(c2ccc(OC)cc2)c2ccc(OC)cc2)cc1" )
1

Name the reported normalized growth value associated with the compound "O=[N+]([O-])c1cc([As](=O)(O)O)ccc1O"
0.993

Recorded normalized growth for "CC(=O)Nc1cc([As](=O)(O)O)ccc1O" , please?
0.993

Using the record for C1CCN2CC3CC(CN4CCCCC34)C2C1 (stereo not given) , report its normalized growth.
0.985

# lookup: normalized growth of "CS(=O)(=O)CCCCN=C=S"
0.685

Could you tell me which normalized growth is on file for "COc1cccc(/C=C/C(=O)O)c1C(C)C" ?
0.98

Which measured normalized growth value corresponds to "O=C(O)/C=C/C=C/c1ccccc1" ?
0.737
